test system: ragweed (common ragweed, Ambrosia elatior); test: Test C greenhouse herbicide test, pre- and postemergence; type: in vivo; details: postemergence, 62 g ai/ha; scale 0 to 100, 0 no effect, 100 complete control
Recorded Ragweed plant response rating by entry

As a guide, the following entries are already answered.
compound=Cc1nn(C)c(=O)c(-c2c(C)sc3ccccc23)c1O endpoint_label="Ragweed plant response rating" result=85
compound=Cc1ccc2sc(C)c(-c3c(O)c(C)nn(C)c3=O)c2c1 endpoint_label="Ragweed plant response rating" result=95

Ask | Give the reported Ragweed plant response rating for CCOC(=O)Oc1c(C)nn(C)c(=O)c1-c1c(CC)ccc2ccccc12 (system: ragweed (common ragweed, Ambrosia elatior)).
Reply | 95

Ask | Look up Ragweed plant response rating with ragweed (common ragweed, Ambrosia elatior) for this molecule: CC(=O)Oc1c(C)nn(C)c(=O)c1-c1c(C)sc2c(C)cc(C)cc12
Reply | 75

Ask | Lab request: please report Ragweed plant response rating under test system ragweed (common ragweed, Ambrosia elatior) for COc1ccc2ccccc2c1-c1c(O)c(C)nn(C)c1=O
Reply | 75

Origin of values: patent US10597388B2
